target.system: Cholinesterase (Homo sapiens, UniProt P06276)
Sequence (P06276 whole entry): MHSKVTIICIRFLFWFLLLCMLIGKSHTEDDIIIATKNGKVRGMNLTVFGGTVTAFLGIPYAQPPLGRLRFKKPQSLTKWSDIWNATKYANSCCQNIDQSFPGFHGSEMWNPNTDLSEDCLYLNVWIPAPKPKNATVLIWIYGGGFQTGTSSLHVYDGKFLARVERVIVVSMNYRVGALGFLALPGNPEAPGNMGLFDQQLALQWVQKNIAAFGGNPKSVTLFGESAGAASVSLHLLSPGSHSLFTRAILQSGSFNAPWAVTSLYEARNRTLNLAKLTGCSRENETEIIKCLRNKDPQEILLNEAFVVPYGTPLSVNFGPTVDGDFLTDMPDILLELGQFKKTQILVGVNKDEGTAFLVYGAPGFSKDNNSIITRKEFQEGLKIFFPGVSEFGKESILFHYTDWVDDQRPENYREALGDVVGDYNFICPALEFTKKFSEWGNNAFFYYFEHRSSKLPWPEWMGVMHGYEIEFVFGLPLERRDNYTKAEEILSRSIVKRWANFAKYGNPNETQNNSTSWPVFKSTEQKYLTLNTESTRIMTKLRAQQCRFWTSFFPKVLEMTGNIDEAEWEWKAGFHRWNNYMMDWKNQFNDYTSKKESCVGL
test.details: Inhibition of human serum BChE using butyrylthiocholine iodide as substrate by visible spectrophotometry
readout: pIC50
Please report pIC50 as the negative decimal logarithm of the molar concentration, giving only the number.

Item C[C@@]12CC[C@@H]3[C@@](CC[C@H]4[C@@]3(C)CCC[C@@]4(C)C(=O)OCC[N+](C)(C)Cc3ccccc3)(CC1=O)C2 with Cholinesterase (Homo sapiens, UniProt P06276) - pIC50? 5.17

###

target.system: Cholinesterase (Homo sapiens, UniProt P06276)
test.details: Inhibition of human serum BChE using butyrylthiocholine iodide as substrate by visible spectrophotometry
pIC50: −log10 of the molar value.
Assign class by pIC50: not lower than 5 means satisfied; lower than 5 means not satisfied.

Identify whether the reported pIC50 of the following molecule is 5 or greater: C[C@H]1C[C@@]23CC[C@H]4[C@@](C)(CCC[C@@]4(C)C(=O)OCC[N+](C)(C)Cc4ccccc4)[C@@H]2CC[C@]1(Cl)C3 satisfied

Identify whether the reported pIC50 of the following molecule is 5 or greater: C[C@@]12CC[C@@H]3[C@]4(CC[C@H]5[C@@]3(C)CCC[C@@]5(C)C(=O)OCC[N+](C)(C)CCCCCCCCC[N+](C)(C)CCOC(=O)[C@]3(C)CCC[C@@]5(C)[C@@H]6CC[C@@]7(C)C[C@]6(CC[C@@H]53)C[C@H]7OC(=O)CCCCCCCCC(=O)O[C@@H]1C4)C2 not satisfied

Identify whether the reported pIC50 of the following molecule is 5 or greater: CC[N+](CC)(CC)CCOCCOCCOC(=O)[C@]1(C)CCC[C@@]2(C)[C@@H]3CC[C@@]4(C)C[C@]3(CC[C@@H]21)CC4=O not satisfied

Identify whether the reported pIC50 of the following molecule is 5 or greater: C[C@H]1C[C@@]23CC[C@H]4[C@@](C)(CCC[C@@]4(C)C(=O)OCC[N+](C)(C)C)[C@@H]2CC[C@]1(Cl)C3 satisfied

Identify whether the reported pIC50 of the following molecule is 5 or greater: C[C@@]12CC[C@@H]3[C@@](CC[C@H]4[C@@]3(C)CCC[C@@]4(C)C(=O)OCC[N+](C)(C)CCCCCCCCCC[N+](C)(C)CCOC(=O)[C@]3(C)CCC[C@@]4(C)[C@@H]5CC[C@@]6(C)C[C@]5(CC[C@@H]43)CC6=O)(CC1=O)C2 not satisfied

Identify whether the reported pIC50 of the following molecule is 5 or greater: C[C@@]12CC[C@@H]3[C@@](CC[C@H]4[C@@]3(C)CCC[C@@]4(C)C(=O)OCC[N+](C)(C)C)(CC1=O)C2 not satisfied

###

target.system: Acetylcholinesterase (Homo sapiens, UniProt P22303)
Sequence (P22303 whole entry): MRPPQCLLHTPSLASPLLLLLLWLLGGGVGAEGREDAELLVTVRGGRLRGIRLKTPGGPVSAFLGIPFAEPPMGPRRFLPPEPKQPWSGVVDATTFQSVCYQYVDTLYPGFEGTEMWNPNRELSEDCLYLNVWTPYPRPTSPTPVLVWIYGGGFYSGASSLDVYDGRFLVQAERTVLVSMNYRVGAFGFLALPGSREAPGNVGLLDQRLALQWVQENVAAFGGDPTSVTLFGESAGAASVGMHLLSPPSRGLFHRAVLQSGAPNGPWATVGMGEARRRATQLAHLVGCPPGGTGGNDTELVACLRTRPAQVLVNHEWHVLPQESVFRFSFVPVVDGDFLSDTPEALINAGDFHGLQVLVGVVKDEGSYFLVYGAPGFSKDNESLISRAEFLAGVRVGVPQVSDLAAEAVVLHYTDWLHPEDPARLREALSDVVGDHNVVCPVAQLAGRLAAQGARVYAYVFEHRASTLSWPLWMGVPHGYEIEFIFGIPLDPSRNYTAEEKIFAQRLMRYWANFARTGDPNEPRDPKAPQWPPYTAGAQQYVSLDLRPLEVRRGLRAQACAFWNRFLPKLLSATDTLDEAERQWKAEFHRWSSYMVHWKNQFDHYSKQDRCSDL
pIC50: −log10 of the molar value.
Assign class by pIC50: not lower than 5 means Y; lower than 5 means N.

Identify whether the reported pIC50 of the following compound is 5 or greater: C[C@@]12CC[C@@H]3[C@@](CC[C@H]4[C@@]3(C)CCC[C@@]4(C)C(=O)OCC[N+](C)(C)Cc3ccccc3)(CC1=O)C2 N

Identify whether the reported pIC50 of the following compound is 5 or greater: C[C@@]12CC[C@@H]3[C@@](CC[C@H]4[C@@]3(C)CCC[C@@]4(C)C(=O)OCC[N+](C)(C)CCCCCCCCCC[N+](C)(C)CCOC(=O)[C@]3(C)CCC[C@@]4(C)[C@@H]5CC[C@@]6(C)C[C@]5(CC[C@@H]43)CC6=O)(CC1=O)C2 N

Identify whether the reported pIC50 of the following compound is 5 or greater: C[C@@]12CC[C@@H]3[C@]4(CC[C@H]5[C@@]3(C)CCC[C@@]5(C)C(=O)OCC[N+](C)(C)CCCCCCCCC[N+](C)(C)CCOC(=O)[C@]3(C)CCC[C@@]5(C)[C@@H]6CC[C@@]7(C)C[C@]6(CC[C@@H]53)C[C@H]7OC(=O)CCCCCCCCC(=O)O[C@@H]1C4)C2 Y

Identify whether the reported pIC50 of the following compound is 5 or greater: C[C@H]1C[C@@]23CC[C@H]4[C@@](C)(CCC[C@@]4(C)C(=O)OCC[N+](C)(C)C)[C@@H]2CC[C@]1(Cl)C3 N

Identify whether the reported pIC50 of the following compound is 5 or greater: C[C@@]12CC[C@@H]3[C@@](CC[C@H]4[C@@]3(C)CCC[C@@]4(C)C(=O)OCC[N+](C)(C)C)(CC1=O)C2 N

Identify whether the reported pIC50 of the following compound is 5 or greater: CC[N+](CC)(CC)CCOCCOCCOC(=O)[C@]1(C)CCC[C@@]2(C)[C@@H]3CC[C@@]4(C)C[C@]3(CC[C@@H]21)CC4=O N

Identify whether the reported pIC50 of the following compound is 5 or greater: C[C@@]12CC[C@@H]3[C@@](CC[C@H]4[C@@]3(C)CCC[C@@]4(C)C(=O)OCC[N+](C)(C)CCCCCCCCCCCC[N+](C)(C)CCOC(=O)[C@]3(C)CCC[C@@]4(C)[C@@H]5CC[C@@]6(C)C[C@]5(CC[C@@H]43)CC6=O)(CC1=O)C2 Y
